Test system: 945468-187-T-J3-PDC spheroids with HUVEC/MSC, viability;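 further: spheroids exposed to agents for 7 days before viability read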
Assay: Anticancer human tumor 945468-187-T-J3-PDC patient-derived rectal carcinoma cell line growth inhibition [PI3K]
Conditions: curve of first compound; second compound 0.316 µM
Description: Combinatorial screen of targeted agents with the PI3K inhibitors inavolisib, alpelisib, duvelisib, and copanlisib in multi-cell type tumor spheroids A high-throughput screen of multi-cell type tumor spheroids was designed to identify active combinations of targeted small molecules and PI3K pathway inhibitors. […] Compounds. […] If the clinical Cmax for an agent had not been determined, the highest concentration tested was 10 microM. […]
Reported IC50 values follow for various molecules

molecule="C#Cc1c(F)ccc2cc(O)cc(-c3ncc4c(N5CC6CCC(C5)N6)nc(OCC56CCCN5CC(F)C6)nc4c3F)c12 (stereo unspecified) + COc1c(OCCCN2CCOCC2)ccc2c3n(c(=NC(=O)c4cnc(N)nc4)nc12)CCN3" assayed_system="945468-187-T-J3-PDC spheroids with HUVEC/MSC, viability" result="< 31.6 nM"
molecule="CC(Cn1ccc(-c2ccc(C#N)c(Cl)c2)n1)NC(=O)c1cc(C(C)O)[nH]n1 (stereo unspecified) + CC(Nc1ccc2c(c1)OCCn1cc(N3C(=O)OCC3C(F)F)nc1-2)C(N)=O" assayed_system="945468-187-T-J3-PDC spheroids with HUVEC/MSC, viability" result="> 10000 nM"
molecule="CC(C)NCC(C(=O)N1CCN(c2ncnc3c2C(C)CC3O)CC1)c1ccc(Cl)cc1 (stereo unspecified) + COc1c(OCCCN2CCOCC2)ccc2c3n(c(=NC(=O)c4cnc(N)nc4)nc12)CCN3" assayed_system="945468-187-T-J3-PDC spheroids with HUVEC/MSC, viability" result="< 31.6 nM"
molecule="Cn1ncc(Cl)c1-c1cc(C(=O)NC(CN)Cc2cccc(F)c2)sc1Cl (stereo unspecified) + CC(Nc1ncnc2nc[nH]c12)c1cc2cccc(Cl)c2c(=O)n1-c1ccccc1" assayed_system="945468-187-T-J3-PDC spheroids with HUVEC/MSC, viability" result="1970 nM"
molecule="CCN1CCN(Cc2ccc(Nc3ncc(F)c(-c4cc(F)c5nc(C)n(C(C)C)c5c4)n3)nc2)CC1 + COc1c(OCCCN2CCOCC2)ccc2c3n(c(=NC(=O)c4cnc(N)nc4)nc12)CCN3" assayed_system="945468-187-T-J3-PDC spheroids with HUVEC/MSC, viability" result="< 3.16 nM"
molecule="Cn1ncnc1[C@H]1c2n[nH]c(=O)c3cc(F)cc(c23)N[C@@H]1c1ccc(F)cc1 + COc1c(OCCCN2CCOCC2)ccc2c3n(c(=NC(=O)c4cnc(N)nc4)nc12)CCN3" assayed_system="945468-187-T-J3-PDC spheroids with HUVEC/MSC, viability" result="< 0.316 nM"
molecule="CC1(C)CCC(Nc2ncc(C(F)(F)F)c(-c3c[nH]c4c(P(C)(C)=O)c(C#N)ccc34)n2)CN1 (stereo unspecified) + COc1c(OCCCN2CCOCC2)ccc2c3n(c(=NC(=O)c4cnc(N)nc4)nc12)CCN3" assayed_system="945468-187-T-J3-PDC spheroids with HUVEC/MSC, viability" result="< 31.6 nM"
molecule="CC(C)n1nc(-c2ccc3oc(N)nc3c2)c2c(N)ncnc21 + COc1c(OCCCN2CCOCC2)ccc2c3n(c(=NC(=O)c4cnc(N)nc4)nc12)CCN3" assayed_system="945468-187-T-J3-PDC spheroids with HUVEC/MSC, viability" result="< 0.316 nM"
molecule="CC1(C)CCC(CN2CCN(c3ccc(C(=O)NS(=O)(=O)c4ccc(NCC5CCOCC5)c([N+](=O)[O-])c4)c(Oc4cnc5[nH]ccc5c4)c3)CC2)=C(c2ccc(Cl)cc2)C1 + Cc1nc(NC(=O)N2CCCC2C(N)=O)sc1-c1ccnc(C(C)(C)C(F)(F)F)c1" assayed_system="945468-187-T-J3-PDC spheroids with HUVEC/MSC, viability" result="6580 nM"
molecule="CC(=O)c1c(C)c2cnc(Nc3ccc(N4CCNCC4)cn3)nc2n(C2CCCC2)c1=O + CC(Nc1ncnc2nc[nH]c12)c1cc2cccc(Cl)c2c(=O)n1-c1ccccc1" assayed_system="945468-187-T-J3-PDC spheroids with HUVEC/MSC, viability" result="> 100 nM"

Entry Cn1cnc2c(F)c(Nc3ccc(Br)cc3Cl)c(C(=O)NOCCO)cc21 + CC(Nc1ncnc2nc[nH]c12)c1cc2cccc(Cl)c2c(=O)n1-c1ccccc1 needs its IC50 filled in; supply it.
> 3000 nM

Entry CC1(C)CCC(Nc2ncc(C(F)(F)F)c(-c3c[nH]c4c(P(C)(C)=O)c(C#N)ccc34)n2)CN1 (stereo unspecified) + CC(Nc1ncnc2nc[nH]c12)c1cc2cccc(Cl)c2c(=O)n1-c1ccccc1 needs its IC50 filled in; supply it.
4740 nM

Entry CC(Cn1ccc(-c2ccc(C#N)c(Cl)c2)n1)NC(=O)c1cc(C(C)O)[nH]n1 (stereo unspecified) + COc1c(OCCCN2CCOCC2)ccc2c3n(c(=NC(=O)c4cnc(N)nc4)nc12)CCN3 needs its IC50 filled in; supply it.
< 31.6 nM

Entry Cn1cnc2c(F)c(Nc3ccc(Br)cc3Cl)c(C(=O)NOCCO)cc21 + CC(Nc1ccc2c(c1)OCCn1cc(N3C(=O)OCC3C(F)F)nc1-2)C(N)=O needs its IC50 filled in; supply it.
118 nM

Entry C[C@@H](NC(=O)c1ncnc(N)c1Cl)c1ncc(C(=O)Nc2cc(C(F)(F)F)c(Cl)cn2)s1 + Cc1nc(NC(=O)N2CCCC2C(N)=O)sc1-c1ccnc(C(C)(C)C(F)(F)F)c1 needs its IC50 filled in; supply it.
> 10000 nM
